Measured IC50, listed per entry.
target: JAK3: Recombinant human kinase domain (810-1124) (Homo sapiens, UniProt P52333); construct: Recombinant human kinase domain (810-1124); made in house; experiment: Determination of IC50 of Janus Kinase (JAK) inhibition, radioactive 33P-ATP end-point assay, JAK3; assay type: biochemical; details: 0.1 nM JAK3, ATP 1.5 uM, peptide 50 uM, 20 minutes, room temperature; read-out: JAK3 Enzyme IC50
Sequence (P52333 810-1124): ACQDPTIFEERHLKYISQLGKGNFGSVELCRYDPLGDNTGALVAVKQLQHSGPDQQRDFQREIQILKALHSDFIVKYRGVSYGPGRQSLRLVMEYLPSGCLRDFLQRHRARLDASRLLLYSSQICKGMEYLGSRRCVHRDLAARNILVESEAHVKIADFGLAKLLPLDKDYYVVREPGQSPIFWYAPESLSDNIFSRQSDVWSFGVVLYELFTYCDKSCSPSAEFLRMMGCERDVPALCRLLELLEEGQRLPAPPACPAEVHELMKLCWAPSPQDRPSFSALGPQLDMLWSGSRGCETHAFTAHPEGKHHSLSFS

Task: // returns reported IC50 for input CCC1(C)CCCCCCc2cccc(n2)Nc2n[nH]c3c2CN(C3)C1=O (centres unmarked) [Compound I-1]
Output: 915 nM

Task: Could you do the same for CC12CCN(CCCc3cccc(n3)Nc3n[nH]c4c3CN(C4)C1=O)C2 (centres unmarked) [Compound I-13] , please?
Output: 92.8 nM

Task: Could you do the same for CC1(C)CCCCCc2cccc(n2)Nc2n[nH]c3c2CN(C3)C1=O [Compound I-6] , please?
Output: 502 nM

Task: Could you do the same for CC1(c2ccccc2)CCCCCc2cccc(n2)Nc2n[nH]c3c2CN(C3)C1=O (centres unmarked) [Compound I-16] , please?
Output: > 1000 nM

Task: Could you do the same for CCC1(C)CCCCCc2cccc(n2)Nc2n[nH]c3c2CN(C3)C1=O (centres unmarked) [Compound I-4] , please?
Output: 280 nM
